pKi: −log10 of the molar value.
// cross-source set; read-out = pKi; system = Adenosine receptor A2a (Homo sapiens, UniProt P29274)
Sequence (P29274 whole entry): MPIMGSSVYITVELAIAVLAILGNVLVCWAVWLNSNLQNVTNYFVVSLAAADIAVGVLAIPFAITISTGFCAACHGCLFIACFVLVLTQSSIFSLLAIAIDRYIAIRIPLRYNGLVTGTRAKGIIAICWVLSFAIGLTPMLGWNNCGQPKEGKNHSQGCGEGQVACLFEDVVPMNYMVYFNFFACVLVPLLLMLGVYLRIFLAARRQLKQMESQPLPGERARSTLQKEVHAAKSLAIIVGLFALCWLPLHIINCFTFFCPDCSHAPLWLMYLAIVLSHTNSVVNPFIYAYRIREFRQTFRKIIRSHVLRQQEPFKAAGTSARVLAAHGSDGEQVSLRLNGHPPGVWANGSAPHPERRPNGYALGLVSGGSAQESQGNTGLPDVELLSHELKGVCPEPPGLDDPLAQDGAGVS
Readout Name: pKi

INSERT INTO assay_data (molecule, assay_target, result_operator, numeric_readout) VALUES
  ('CCCn1c(=O)[nH]c2nc(-c3cnn(Cc4cccc(C(F)(F)F)c4)c3)[nH]c2c1=O', 'Adenosine receptor A2a (Homo sapiens, UniProt P29274)', '<', 5.30),
  ('CNC(=O)[C@]12C[C@@H]1[C@@H](n1cnc3c(NCc4cc(I)ccc4Cl)nc(Cl)nc31)[C@H](O)[C@@H]2O', 'Adenosine receptor A2a (Homo sapiens, UniProt P29274)', '=', 6.32),
  ('Cn1c2ccccc2n2c(=O)c(-c3ccco3)nnc12', 'Adenosine receptor A2a (Homo sapiens, UniProt P29274)', '=', 5.58),
  ('Nc1nc(-c2ccc(OCC(O)CN3CCOCC3)cc2)cn2c(=O)n(-c3ccccc3)nc12 (stereo not given)', 'Adenosine receptor A2a (Homo sapiens, UniProt P29274)', '=', 6.71),
  ('CCc1nc2c(=O)n(Cc3ccccc3)nc(C3CCCC3)c2c2cc(-c3ccccc3)nn12', 'Adenosine receptor A2a (Homo sapiens, UniProt P29274)', '=', 6.18);
